Here, each record is paired with measured pIC50 data.
- TGT: PRMT5 (Homo sapiens)
- Construct: purchased Viva (custom protein)
- Sequence (O14744 whole entry): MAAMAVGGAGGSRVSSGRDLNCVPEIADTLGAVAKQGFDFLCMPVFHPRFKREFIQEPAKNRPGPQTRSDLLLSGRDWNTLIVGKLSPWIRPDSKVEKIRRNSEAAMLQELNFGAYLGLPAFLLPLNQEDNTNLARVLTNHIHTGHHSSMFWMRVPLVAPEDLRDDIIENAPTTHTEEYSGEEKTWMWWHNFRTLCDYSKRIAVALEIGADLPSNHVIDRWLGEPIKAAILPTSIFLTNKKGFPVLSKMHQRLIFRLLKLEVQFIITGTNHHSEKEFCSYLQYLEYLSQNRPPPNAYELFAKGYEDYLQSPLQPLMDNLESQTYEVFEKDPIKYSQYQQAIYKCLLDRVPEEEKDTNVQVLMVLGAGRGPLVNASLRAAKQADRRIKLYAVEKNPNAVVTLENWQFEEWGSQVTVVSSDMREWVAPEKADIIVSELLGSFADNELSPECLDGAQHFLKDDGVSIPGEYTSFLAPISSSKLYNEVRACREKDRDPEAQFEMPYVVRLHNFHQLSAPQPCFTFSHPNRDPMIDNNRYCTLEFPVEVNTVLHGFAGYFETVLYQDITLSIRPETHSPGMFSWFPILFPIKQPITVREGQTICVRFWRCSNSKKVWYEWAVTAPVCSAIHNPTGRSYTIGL
- Sequence (Q9BQA1 whole entry partner): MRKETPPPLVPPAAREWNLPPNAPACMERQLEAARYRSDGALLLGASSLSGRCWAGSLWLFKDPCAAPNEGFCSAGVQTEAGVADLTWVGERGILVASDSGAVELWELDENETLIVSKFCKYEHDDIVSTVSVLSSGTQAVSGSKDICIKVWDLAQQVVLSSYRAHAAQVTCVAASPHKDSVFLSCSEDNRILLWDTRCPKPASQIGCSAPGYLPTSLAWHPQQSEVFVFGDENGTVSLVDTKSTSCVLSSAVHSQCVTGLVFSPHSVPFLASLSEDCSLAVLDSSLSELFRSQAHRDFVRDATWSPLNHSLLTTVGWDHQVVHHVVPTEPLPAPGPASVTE
- PROTOCOL_NOTES: PRMT5 biochemical IC50 assay with MTA as cofactor
- MEASUREMENT_SETUP: PRMT5, MTA as cofactor; read-out: MTA IC50
pIC50: −log10 of the molar value.

QUERY: Request the reported pIC50 associated with C[C@H]1CC[C@H](c2ccc(S(N)(=O)=O)cc2)N(C(=O)C(=O)Nc2cncc(C(N)=O)c2)C1 (single isomer, unassigned) [Compound 724]
RESULT: < 6.30

QUERY: Same question, Cc1cc(NC(=O)C(=O)N2C[C@H](C)C(F)(F)C[C@H]2c2ccc(F)c(F)c2)cnc1N (single isomer, unassigned) [Compound 684] this time
RESULT: < 6.30

QUERY: Moving on to C[C@@H]1CC[C@@H](c2cccc(C3CCC3)c2)N(C(=O)C(=O)Nc2cncc(C(N)=O)c2)C1 (racemic) [Compound 261]
RESULT: > 7.30
